# target-or-test-system: hCMV UL128 + UL130 + UL131A (co-expressed in HEK293T cells) (human cytomegalovirus, UniProt P16837 28-171; P16772 1-214; F5HET4 19-129)
# Sequence (P16837 28-171 limits assumed, one chain of several): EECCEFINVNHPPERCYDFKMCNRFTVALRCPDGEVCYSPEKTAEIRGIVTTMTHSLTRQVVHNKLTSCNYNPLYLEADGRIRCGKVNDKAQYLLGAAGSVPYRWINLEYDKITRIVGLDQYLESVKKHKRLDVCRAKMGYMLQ
# test-summary: cell-based or functional assay
endpoint: 90% Neutralization ARPE (µg/mL)

| binder | endpoint | units-symbol | recorded-value |
| --- | --- | --- | --- |
| 8C15 (antibody, V domains shown) VH: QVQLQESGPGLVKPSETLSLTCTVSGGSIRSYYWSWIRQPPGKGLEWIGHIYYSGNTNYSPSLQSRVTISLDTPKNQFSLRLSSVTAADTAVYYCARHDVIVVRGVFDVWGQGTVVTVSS VL: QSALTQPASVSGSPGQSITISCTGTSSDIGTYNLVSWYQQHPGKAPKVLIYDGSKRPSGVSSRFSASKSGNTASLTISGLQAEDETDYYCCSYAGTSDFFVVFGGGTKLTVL | 90% Neutralization ARPE | µg/mL | 0.0025 |
| 2C12 (antibody, V domains shown) VH: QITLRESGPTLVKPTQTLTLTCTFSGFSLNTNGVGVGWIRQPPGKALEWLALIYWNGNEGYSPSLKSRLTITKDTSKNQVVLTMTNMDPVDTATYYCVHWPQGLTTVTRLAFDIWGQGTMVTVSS VL: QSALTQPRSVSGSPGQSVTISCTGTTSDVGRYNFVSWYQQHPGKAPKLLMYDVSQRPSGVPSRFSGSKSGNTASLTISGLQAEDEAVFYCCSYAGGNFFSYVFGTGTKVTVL | 90% Neutralization ARPE | µg/mL | 0.006 |
| 7I13 (antibody, V domains shown) VH: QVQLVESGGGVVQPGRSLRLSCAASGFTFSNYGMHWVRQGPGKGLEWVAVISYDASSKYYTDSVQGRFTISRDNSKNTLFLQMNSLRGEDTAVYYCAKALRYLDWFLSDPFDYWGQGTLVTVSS VL: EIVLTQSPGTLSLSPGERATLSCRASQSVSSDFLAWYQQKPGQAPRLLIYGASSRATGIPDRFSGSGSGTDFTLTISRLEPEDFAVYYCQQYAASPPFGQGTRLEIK | 90% Neutralization ARPE | µg/mL | 0.008 |

Data origin: patent US20170129940A1
